Ref: patent US8987194B2

Answer each item with its documented Measurement of inhibitory zone, L. lactis HP (b).
Test system: L. lactis HP
Test: Agarose-based diffusion assay of Nisin A S29 supernatants
Assay type: cell-based, L. lactis spp cremoris
Conditions: replicate b
Experimental: The Nisin A S29 derivatives were retested using this assay (See FIG. 1). The modified agarose-based assay was performed against 2 indicator strains, L. lactis spp cremoris HP (Table. 6) and Listeria monocytogenes LO28 (Table. 7).
Where no end group is shown, it is not given here.
One number for each entry, in mm.

Reference set (4 entries):
1. Nisin A S29H: Nisin A derivative with H at position 29 (ITSISLCTPGCKTGALMGCNMKTATCHCHIHVSK; cysteine pairing not given here; also: lantibiotic nisin-A post-translational modifications, not placed; UniProt P13068 24-57, looked up, variant S29H): 10.7
2. Nisin A S29F: Nisin A derivative with F at position 29 (ITSISLCTPGCKTGALMGCNMKTATCHCFIHVSK; cysteine pairing not given here; also: lantibiotic nisin-A post-translational modifications, not placed; UniProt P13068 24-57, looked up, variant S29F): 12.2
3. Nisin A S29M: Nisin A derivative with M at position 29 (ITSISLCTPGCKTGALMGCNMKTATCHCMIHVSK; cysteine pairing not given here; also: lantibiotic nisin-A post-translational modifications, not placed; UniProt P13068 24-57, looked up, variant S29M): 14.5
4. Nisin A S29Q: Nisin A derivative with Q at position 29 (ITSISLCTPGCKTGALMGCNMKTATCHCQIHVSK; cysteine pairing not given here; also: lantibiotic nisin-A post-translational modifications, not placed; UniProt P13068 24-57, looked up, variant S29Q): 15.2

Consider the following items and state reported Measurement of inhibitory zone, L. lactis HP (b) for each.
1. Nisin A S29I: Nisin A derivative with I at position 29 (ITSISLCTPGCKTGALMGCNMKTATCHCIIHVSK; cysteine pairing not given here; also: lantibiotic nisin-A post-translational modifications, not placed; UniProt P13068 24-57, looked up, variant S29I)
2. Nisin A S29L: Nisin A derivative with L at position 29 (ITSISLCTPGCKTGALMGCNMKTATCHCLIHVSK; cysteine pairing not given here; also: lantibiotic nisin-A post-translational modifications, not placed; UniProt P13068 24-57, looked up, variant S29L)

Outgoing:
1: 11.3; 2: 13.5
